Would you kindly list log10 of half-life for each of these compounds?
- ASSAY_TEXT: Terminal half life in Ellegaard Gottingen minipig at 5 nmol/kg, iv by LC-MS/MS analysis
- Assay type: ADME, organism-based, Sus scrofa
- APPLIED_CONDITIONS: pig, in vivo, read-out: beta t1/2 (converted)
Numbered stars: 1 amine (or outer) side, 2 acyl side, 3 side chain; on linkers, the order of the positions; unused ones are H or OH. Square brackets hold non-standard residues; d marks the D form. Side chains are listed from the residue outwards. Peptide text beside a SMILES is read from it. * marks the point of attachment. Phe(4-CH2SO3H) = N[C@@H](Cc1ccc(CS(=O)(=O)O)cc1)C(=O)O; sY = N[C@@H](Cc1ccc(OS(=O)(=O)O)cc1)C(=O)O; C18 diacid = O=C(O)CCCCCCCCCCCCCCCCC(=O)*; NMe1Nal = CN[C@@H](Cc1cccc2ccccc12)C(=O)O; γGlu = O=C(O)[C@H](CCC(=O)[*:2])N[*:1]; 1Nal = N[C@@H](Cc1cccc2ccccc12)C(=O)O; βAsp = O=C(O)[C@H](CC(=O)[*:2])N[*:1]; NMeF = CN[C@@H](Cc1ccccc1)C(=O)O; NMeD = CN[C@@H](CC(=O)O)C(=O)O; dNMeD = CN[C@H](CC(=O)O)C(=O)O; Nle = CCCC[C@H](N)C(=O)O; X1 = O=C(Cc1ccc(O)cc1)*; AEEA = NCCOCCOCC(=O)O
# log10 transformed; quantity=half-life; unit=h

Provide log10 of half-life value for the following compound: `CCCC[C@H](NC(=O)[C@H](Cc1c[nH]c2ccccc12)NC(=O)CNC(=O)[C@H](CC(C)C)NC(=O)[C@H](Cc1ccc(OS(=O)(=O)O)cc1)NC(=O)[C@H](CC(=O)O)NC(=O)CCCCCCCCCCCCCCCCC(=O)O)C(=O)N(C)[C@H](CC(=O)O)C(=O)N(C)[C@@H](Cc1ccccc1)C(N)=O` 0.41

Provide log10 of half-life value for the following compound: CCCC[C@H](NC(=O)[C@H](Cc1c[nH]c2ccccc12)NC(=O)CNC(=O)[C@H](CCCCNC(=O)COCCOCCNC(=O)COCCOCCNC(=O)CC[C@H](NC(=O)CCCCCCCCCCCCCCCCC(=O)O)C(=O)O)NC(=O)Cc1ccc(O)cc1)C(=O)N(C)[C@@H](CC(=O)O)C(=O)N(C)[C@@H](Cc1ccccc1)C(N)=O (X1-K([AEEA-AEEA-γGlu-C18 diacid])GW[Nle][NMeD][NMeF]-NH2) 0.85

Provide log10 of half-life value for the following compound: CCCC[C@H](NC(=O)[C@H](Cc1c[nH]c2ccccc12)NC(=O)CNC(=O)[C@H](CC(C)C)NC(=O)[C@H](Cc1ccc(OS(=O)(=O)O)cc1)NC(=O)[C@H](CC(=O)O)NC(=O)COCCOCCNC(=O)COCCOCCNC(=O)CC[C@H](NC(=O)CCCCCCCCCCCCCCCCC(=O)O)C(=O)O)C(=O)N(C)[C@H](CC(=O)O)C(=O)N(C)[C@@H](Cc1cccc2ccccc12)C(N)=O ({C18 diacid-γGlu-AEEA-AEEA}-D[sY]LGW[Nle][dNMeD][NMe1Nal]-NH2) 2.17

Provide log10 of half-life value for the following compound: CCCC[C@H](NC(=O)[C@H](Cc1ccc(CS(=O)(=O)O)cc1)NC(=O)C[C@H](NC(=O)COCCOCCNC(=O)COCCOCCNC(=O)CC[C@H](NC(=O)CCCCCCCCCCCCCCCCC(=O)O)C(=O)O)C(=O)O)C(=O)NCC(=O)N[C@@H](Cc1c[nH]c2ccccc12)C(=O)N[C@@H](CCCC)C(=O)N(C)[C@H](CC(=O)O)C(=O)N(C)[C@@H](Cc1ccccc1)C(N)=O ({C18 diacid-γGlu-AEEA-AEEA-βAsp}-[Phe(4-CH2SO3H)][Nle]GW[Nle][dNMeD][NMeF]-NH2) 2.03

Provide log10 of half-life value for the following compound: CCCC[C@H](NC(=O)[C@H](Cc1ccc(OS(=O)(=O)O)cc1)NC(=O)[C@H](CC(=O)O)NC(=O)COCCOCCNC(=O)COCCOCCNC(=O)CC[C@H](NC(=O)CCCCCCCCCCCCCCCCC(=O)O)C(=O)O)C(=O)NCC(=O)N[C@@H](Cc1c[nH]c2ccccc12)C(=O)N[C@@H](CCCC)C(=O)N(C)[C@H](CC(=O)O)C(=O)N[C@@H](Cc1cccc2ccccc12)C(N)=O ({C18 diacid-γGlu-AEEA-AEEA}-D[sY][Nle]GW[Nle][dNMeD][1Nal]-NH2) 2.15

Measured values drawn from ChEMBL document CHEMBL4368907 for this set.
